Tested on: SK-MEL-28
Assay: NCI tumour cell line growth inhibition, 48 h
Calls of active or inactive are those of the source. No stated cut-off is given here; in the data, active = GI50 up to about 1.1 µM and inactive = higher. Non-standard residues stand in square brackets, D forms with d. Residues, ends and D or L forms follow the SMILES beside them. *: point of attachment. X30 = COC1=CC(=O)N(C(=O)[C@@H](O*)C(C)C)[C@H]1Cc1ccccc1; NMeL = CN[C@@H](CC(C)C)C(=O)O; Cbz = O=C(OCc1ccccc1)*
Reply using exactly one outcome from 1.0 for active, 0.0 for inactive

Some solved entries appear below for comparison.
Molecule: CC1NCCc2c1[nH]c1cc(O)ccc21 (centres undefined)
Class: 0.0
--
Molecule: CC(NC1=NCCO1)c1ccco1 (centres undefined)
Class: 0.0
--
Molecule: CC(=O)c1cc2c3c(c1)c1cc4c(cc1c(=O)n3CC2)OCO4
Class: 0.0
--
Molecule: COC1=CC(=O)N(C(=O)[C@@H](OC(=O)[C@@H]2CCCN2C(=O)[C@@H]2CCCN2C(=O)[C@H](CC(C)C)N(C)C(=O)[C@@H](NC(=O)[C@@H](NC(=O)OCc2ccccc2)C(C)C)C(C)C)C(C)C)[C@H]1Cc1ccccc1 (Cbz-VV[NMeL]PP-X30)
Class: 0.0
--
Molecule: CN1CCC2(CC1)/C(=N/C1CCCCC1)NC(=S)N2c1ccccc1
Class: 0.0

Record lookup: outcome of this test for CC(NNC(=O)c1ccncc1)c1ccccc1 (centres undefined) ?
0.0

Record lookup: outcome of this test for O=C1c2cc(O)c(O)cc2O[C@H](c2ccc(O)c(O)c2)[C@H]1O ?
0.0

Record lookup: outcome of this test for CCOC(=O)c1csc(NC(=O)C(C)N2CCCC2)n1 (centres undefined) ?
0.0

Record lookup: outcome of this test for COC1(OC)C[C@H](C)[C@@]23O[C@]24C2=CC(=O)C=CC2=N[C@H]3C#C/C=C\C#C[C@]14O ?
1.0

* * *

Recorded measurements of GI50, one per entry
System: MDA-MB-435
Assay: NCI tumour cell line growth inhibition, 48 h
Calls of active or inactive are those of the source. No stated cut-off is given here; in the data, active = GI50 up to about 1.1 µM and inactive = higher.

Compound: O=[N+]([O-])c1cc(C2ON=C(c3ccccc3)N2C23CC4CC(CC(C4)C2)C3)ccc1Cl (stereo not drawn)
GI50: > 100 µM (inactive)
--
Compound: CC(C)OP(=O)(OC(C)C)C(C(C)C)N(C)/C(N)=N/C#N (stereo not drawn)
GI50: > 100 µM (inactive)
--
Compound: COc1cc2cc(C(=O)N3CC(CCl)c4c3cc(NCCN)c3ccccc43)[nH]c2c(OC)c1OC (stereo not drawn)
GI50: < 0.01 µM (active)
--
Compound: O=C1CCCSC(=O)N1Cc1ccccc1
GI50: > 100 µM (inactive)
--
Compound: CCOC(=O)c1c(N2CCCC2)[nH]c(=O)c(C(c2cccs2)c2c(O)c(C(=O)OCC)c(N3CCCC3)[nH]c2=O)c1O
GI50: > 100 µM (inactive)
--
Compound: CCOC(=O)C1(C#N)C(C#N)(C#N)C1(C#N)C#N
GI50: > 100 µM (inactive)
--
Compound: CSc1nc(NCc2ccccc2)c2cnn(COCCO)c2n1
GI50: 27.4 µM (inactive)
--
Compound: C=C1c2nc3ccccc3n2C=C(c2ccc(OC)cc2)N1c1ccc(OCCN2CCOCC2)cc1
GI50: 24.3 µM (inactive)
--
Compound: COC1CC(OC2CCC3(C)C(=CCC4C3C(OC(C)=O)C(OC(=O)CC(C)C)C3(C)C(C(C)=O)CCC43O)C2)OC(C)C1OC1CC(OC)C(OC2CC(OC)C(OC3OC(C)C(OC4OC(CO)C(O)C(O)C4O)C(OC)C3O)C(C)O2)C(C)O1 (stereo not drawn)
GI50: > 75 µM (inactive)
--
Compound: OC(C#CCN1CCCC1)(c1ccccc1)c1ccccc1Cl (stereo not drawn)
GI50: 23.2 µM (inactive)

Which measured GI50 belongs to CC[C@@]1(O)CC(OC2CC(N3CCOCC3)C(O)C(C)O2)c2c(O)c3c(c(O)c2[C@H]1O)C(=O)c1cccc(O)c1C3=O (stereo partly drawn) , tested on MDA-MB-435?
0.304 µM (active)

Which measured GI50 belongs to O=C(Nc1ccc(F)cc1)c1cc2c(cc1Cl)Sc1nccn1S2(=O)=O , tested on MDA-MB-435?
59.4 µM (inactive)

Which measured GI50 belongs to Cc1nn(C(=O)c2ccccc2O)c2c1C(c1ccccc1O)SC(=N)N2 (stereo not drawn) , tested on MDA-MB-435?
3.08 µM (inactive)

* * *

Recorded measurements of GI50, one per entry
Test system: OVCAR-4
Experiment: NCI tumour cell line growth inhibition, 48 h
Activity calls are given as the source filed them. Rule as the data show it: active = GI50 up to about 1.1 µM and inactive = higher.

These recorded examples may help you get a feel for the data.
Molecule: O=C1CCCSC(=O)N1Cc1ccccc1
GI50: > 100 µM (inactive)
--
Molecule: CN(C)Cc1cc(C(=O)O)cc(CN(C)C)c1O
GI50: > 100 µM (inactive)
--
Molecule: Cc1cc(O)c2c(c1)C(=O)c1c(c(O)cc(O)c1-c1c(O)cc(O)c3c1C(=O)c1cc(C)cc(O)c1C3=O)C2=O
GI50: 10.9 µM (inactive)
--
Molecule: COc1ccc(OC)c2sc(N3C(=O)/C(=C/c4ccc(N(C)C)cc4)N=C3c3ccccc3)nc12
GI50: > 100 µM (inactive)
--
Molecule: CC(NC1=NCCO1)c1ccco1 (stereo not drawn)
GI50: > 100 µM (inactive)

Now look at this entry.
What value of measured GI50 is listed for Cc1cc(C)nc(NS(=O)(=O)c2ccc(Nc3c4ccccc4nc4c(C(=O)NCCN(C)C)ccc(Cl)c34)cc2)n1 ?
1.1 µM (active)

* * *

Tested on: SN12C
Experiment: NCI tumour cell line growth inhibition, 48 h
Activity calls are given as the source filed them. Rule as the data show it: active = GI50 up to about 1.1 µM and inactive = higher.
Reply using exactly one outcome from active, inactive

Some solved entries appear below for comparison.
Compound: CCSc1nnc(CSc2nc(-c3ccccc3)c(-c3ccccc3)[nH]2)n1-c1ccccc1
Class: inactive

Compound: CCC(C)(O)c1cn(-c2ccc(Cl)cc2)nn1 (stereo not given)
Class: inactive

Compound: C[C@H](NC(=O)C(Cc1ccccc1)(Cc1ccc(O)cn1)NC(=O)c1ccccc1)c1ccccc1 (stereo not given in full)
Class: inactive

Compound: CC[C@@]1(O)CC(OC2CC(N3CCOCC3)C(O)C(C)O2)c2c(O)c3c(c(O)c2[C@H]1O)C(=O)c1cccc(O)c1C3=O (stereo not given in full)
Class: active

Compound: CCc1[nH]c(=O)c2oc3cc4ccccc4cc3c2c1C(=O)O
Class: inactive

Compound: COC(=O)C1C2C=CC(C2)C1(C(=O)OC)[S+]([O-])CC12CCC(CC1O)C2(C)C (stereo not given)
Class: inactive

Compound: COc1cccc(C2c3cc4c(cc3OC(N3CCCCC3)C2C)OCO4)c1O (stereo not given)
Class: inactive

Compound: C=C(C)c1cc(C(C)(C)C)cc(C(=C)C)c1S(C)(=O)=O
Class: inactive

Compound: CCC[C@H](O)[C@@H](CNc1cc(NC(C)=O)nc(NC(C)=O)n1)N(Cc1ccccc1)Cc1ccccc1
Class: inactive

Now look at this one.
Record lookup: outcome of this test for CN1CN(C2OC(CO)C(O)C2O)c2nc(N)[nH]c(=O)c21 (stereo not given) ?
inactive

* * *

Tested on: DU-145
Experiment: NCI tumour cell line growth inhibition, 48 h
Activity calls are given as the source filed them. Cut-off read from the data, not from the text of the source: active = GI50 up to about 1.1 µM and inactive = higher.
Measured Metric: GI50

These recorded examples may help you get a feel for the data.
Compound: O=C(OCc1ccccc1)N(CCCCN(CCCNC(=O)C(F)(F)F)C(=O)OCc1ccccc1)CCCNC(=O)C(F)(F)F
GI50: > 100 µM (inactive)
//
Compound: CNC(=O)CCC(NC(=O)OC(C)(C)C)C(=O)NC(Cc1ccc(NC(=O)CCCCC(C)=O)cc1)C(=O)NCC(=O)NC (stereo unspecified)
GI50: > 100 µM (inactive)
//
Compound: O=C(O)CCN1C(=S)CSC1=S
GI50: > 100 µM (inactive)
//
Compound: CC1=CC(=O)c2cccc(NC3=NCCO3)c21
GI50: 74.1 µM (inactive)
//
Compound: O=S(=O)(O)c1cc(O)c(/N=N/c2ccc3ccccc3c2O)c2ccccc12 [ERIOCHROME BLUE BLACK B]
GI50: 14.3 µM (inactive)

What value of measured GI50 is listed for CSc1nc(NCc2ccccc2)c2cnn(COCCO)c2n1 ?
64.3 µM (inactive)

What value of measured GI50 is listed for Cc1nc(Nc2ccc(F)cc2)c2sc(=S)n(-c3ccc(F)cc3)c2n1 ?
13.4 µM (inactive)

* * *

Tested on: ACHN
Test: NCI tumour cell line growth inhibition, 48 h
Calls of active or inactive are those of the source. No stated cut-off is given here; in the data, active = GI50 up to about 1.1 µM and inactive = higher.
Reply using exactly one outcome from T for active, F for inactive

Some solved entries appear below for comparison.
Compound: CC(=O)/C(=C\c1ccc(Cl)c(Cl)c1)C(=O)C(C)CN(C)C (stereo not given)
Study System: ACHN
Class: F
//
Compound: O=C(O)CSc1nc2ccccc2[nH]1
Study System: ACHN
Class: F
//
Compound: Clc1ccccc1C(Nc1ncccn1)Nc1ncccn1
Study System: ACHN
Class: F
//
Compound: CC(=O)Oc1ccc(O)c(O)c1C/C=C(\C)CC/C=C(\C)CC/C=C(\C)CCC=C(C)C [TETRAPRENYLPHENOLSUILLIN]
Study System: ACHN
Class: T
//
Compound: CC(C)(C)C(=O)c1c(O)c2ccccc2c2ccccc2c1=O
Study System: ACHN
Class: F

Record lookup: outcome of this test for CC(=O)CCC1(c2ccccc2)OC(=O)C(C#N)=C1c1ccccc1 (stereo not given) ?
F

Record lookup: outcome of this test for C=CCOc1ccc(N)c([N+](=O)[O-])c1 ?
F
